Source of measurements: patent US11708367B2

target: KDR (Homo sapiens (Human), UniProt P35968); assay: KDR autophosphorylation ELISA in HUVEC cells; settings: cellular, VEGF165-stimulated, phospho-KDR ELISA
Sequence (P35968 20-1356): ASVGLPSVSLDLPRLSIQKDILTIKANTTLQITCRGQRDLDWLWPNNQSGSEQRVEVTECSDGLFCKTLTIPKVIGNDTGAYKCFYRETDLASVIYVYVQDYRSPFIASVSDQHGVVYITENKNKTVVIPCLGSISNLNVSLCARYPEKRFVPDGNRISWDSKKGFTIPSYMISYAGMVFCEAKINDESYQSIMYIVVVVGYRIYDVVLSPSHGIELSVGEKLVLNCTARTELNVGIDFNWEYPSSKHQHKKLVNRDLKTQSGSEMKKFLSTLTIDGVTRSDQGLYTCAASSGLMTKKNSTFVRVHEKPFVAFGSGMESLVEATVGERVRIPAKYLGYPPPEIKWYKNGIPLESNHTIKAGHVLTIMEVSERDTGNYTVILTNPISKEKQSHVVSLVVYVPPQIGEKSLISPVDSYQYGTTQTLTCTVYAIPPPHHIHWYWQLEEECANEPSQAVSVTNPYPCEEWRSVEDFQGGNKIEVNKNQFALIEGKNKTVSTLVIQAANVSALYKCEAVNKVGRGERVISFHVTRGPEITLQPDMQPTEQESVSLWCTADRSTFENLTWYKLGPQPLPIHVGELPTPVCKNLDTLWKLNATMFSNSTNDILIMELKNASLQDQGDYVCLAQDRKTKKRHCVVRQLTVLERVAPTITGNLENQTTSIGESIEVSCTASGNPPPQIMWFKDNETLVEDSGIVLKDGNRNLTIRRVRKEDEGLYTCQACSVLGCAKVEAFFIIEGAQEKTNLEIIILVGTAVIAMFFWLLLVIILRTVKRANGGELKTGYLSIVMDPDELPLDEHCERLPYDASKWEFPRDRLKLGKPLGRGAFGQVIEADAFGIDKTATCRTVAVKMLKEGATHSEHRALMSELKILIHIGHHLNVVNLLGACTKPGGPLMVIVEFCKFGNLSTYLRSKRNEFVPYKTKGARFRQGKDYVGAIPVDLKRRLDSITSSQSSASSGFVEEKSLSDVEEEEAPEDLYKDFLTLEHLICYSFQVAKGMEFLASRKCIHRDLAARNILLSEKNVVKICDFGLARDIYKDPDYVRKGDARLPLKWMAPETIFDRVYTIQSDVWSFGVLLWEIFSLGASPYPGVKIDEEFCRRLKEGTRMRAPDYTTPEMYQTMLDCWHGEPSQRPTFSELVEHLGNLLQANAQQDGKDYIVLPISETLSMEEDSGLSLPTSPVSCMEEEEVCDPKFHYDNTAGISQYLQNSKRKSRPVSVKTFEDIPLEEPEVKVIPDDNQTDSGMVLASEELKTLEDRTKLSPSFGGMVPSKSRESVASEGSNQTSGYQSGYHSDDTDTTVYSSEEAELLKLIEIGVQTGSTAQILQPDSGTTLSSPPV
Each entry below lists one item and its recorded IC50 value.
assay metric: IC50

> print(dat)
                                    molecule         result
 1  COc1cc2nccc(Oc3ccc(NC(=O)C4(C(=O)Nc5ccc(F)cc5)CC4)cc3)c2nc1C(=O)N(C)C [Compound 174]       > 300 nM
 2  COc1cnc2c(Oc3cc(F)c(NC(=O)C4(C(=O)Nc5ccc(F)cc5)CC4)cc3F)ncnc2c1 [Compound 19]  100 to 300 nM
 3  COc1cc2nccc(Oc3ccc(NC(=O)C4(C(=O)Nc5ccc(F)cc5)CC4)cc3)c2nc1-c1cn[nH]c1 [Compound 183]       > 300 nM
 4  COc1nc2c(Oc3ccc(NC(=O)C4(C(=O)Nc5ccc(F)cc5)CC4)c(Cl)c3)ncnc2cc1OCCCN1CCOCC1 [Compound 70]  100 to 300 nM
 5  COCCOc1cc2ncnc(Oc3ccc(NC(=O)C4(C(=O)Nc5ccc(F)cc5)CC4)c(F)c3)c2nc1OC [Compound 81]   10 to 100 nM
 6  O=C(Nc1ccc(F)cc1)C1(C(=O)Nc2ccc(Oc3ccnc4cc5c(nc34)OCCO5)c(Cl)c2)CC1 [Compound 159]       > 300 nM
 7  COCCOc1cc2nccc(Oc3ccc(NC(=O)C4(C(=O)Nc5ccc(F)cc5)CC4)cc3Cl)c2nc1OC [Compound 151]        ≤ 10 nM
 8  Cn1cc(-c2ccc3ncnc(Oc4ccc(NC(=O)C5(C(=O)Nc6ccc(F)cc6)CC5)cc4)c3c2)cn1 [Compound 126]       > 300 nM
 9  COc1cc2ncnc(Oc3ccc(NC(=O)C4(C(=O)Nc5ccc(F)cc5)CC4)cc3Cl)c2nc1OC [Compound 29]        ≤ 10 nM
10  COc1nc2c(Oc3ccc(NC(=O)C4(C(=O)Nc5ccc(F)cc5)CC4)cc3C#N)ncnc2cc1OCCCN1CCOCC1 [Compound 75]   10 to 100 nM
11  COc1nc2c(Oc3c(F)cc(NC(=O)C4(C(=O)Nc5ccc(F)cc5)CC4)cc3F)ncnc2cc1OCCCN1CCOCC1 [Compound 76]   10 to 100 nM
12  COc1cc2ncnc(Oc3ccc(NC(=O)C4(C(=O)Nc5ccc(F)cc5)CC4)c(F)c3F)c2nc1OC [Compound 34]   10 to 100 nM
13  COCCOc1cc2ncnc(Oc3ccc(NC(=O)C4(C(=O)Nc5ccc(F)cc5)CC4)c(F)c3F)c2nc1OC [Compound 82]        ≤ 10 nM
14  COc1cc2ncnc(Oc3ccc(NC(=O)C4(C(=O)Nc5ccc(F)cc5)CC4)cc3)c2cc1C(=O)NCCN1CCCC1 [Compound 118]  100 to 300 nM
15  O=C(Nc1ccc(F)cc1)C1(C(=O)Nc2ccc(Oc3ccnc4cc5c(nc34)OCCO5)cc2)CC1 [Compound 157]       > 300 nM
16  COCCOc1cc2ncnc(Oc3ccc(NC(=O)C4(C(=O)Nc5ccc(F)cc5)CC4)cc3Cl)c2nc1OC [Compound 80]        ≤ 10 nM
17  CNC(=O)c1nc2c(Oc3ccc(NC(=O)C4(C(=O)Nc5ccc(F)cc5)CC4)cc3)ccnc2cc1OC [Compound 172]       > 300 nM
18  COc1cc2nccc(Oc3ccc(NC(=O)C4(C(=O)Nc5ccc(F)cc5)CC4)cc3F)c2nc1OC [Compound 140]        ≤ 10 nM
19  Cn1cc(-c2cnc3c(Oc4ccc(NC(=O)C5(C(=O)Nc6ccc(F)cc6)CC5)cc4)ncnc3c2)cn1 [Compound 129]  100 to 300 nM
20  Cn1cc(-c2cc3ncnc(Oc4ccc(NC(=O)C5(C(=O)Nc6ccc(F)cc6)CC5)cc4)c3cn2)cn1 [Compound 130]        ≤ 10 nM
21  COc1cc2ncnc(Oc3ccc(NC(=O)C4(C(=O)Nc5ccc(F)cc5)CC4)cc3)c2cc1C(N)=O [Compound 117]   10 to 100 nM
22  COc1cc2ncnc(Oc3ccc(NC(=O)C4(C(=O)Nc5ccc(F)cc5)CC4)cc3)c2cn1 [Compound 104]       > 300 nM
23  COc1nc2c(Oc3ccc(NC(=O)C4(C(=O)Nc5ccc(F)cc5)CC4)cc3Cl)ncnc2cc1OCCCN1CCOCC1 [Compound 66]        ≤ 10 nM
24  COc1cc2nccc(Oc3ccc(NC(=O)C4(C(=O)Nc5ccc(F)cc5)CC4)cc3F)c2nc1C#N [Compound 165]  100 to 300 nM
25  COc1cc2ncnc(Oc3cc(F)c(NC(=O)C4(C(=O)Nc5ccc(F)cc5)CC4)cc3F)c2nc1OC [Compound 35]   10 to 100 nM
